# MEASURED_TARGET: glutathione-S-transferase (GST) tagged LXRalpha LBD (ligand binding domain) (Homo sapiens)
# Construct: purchased Invitrogen pv4655
# Sequence (Q13133 209-447 limits assumed): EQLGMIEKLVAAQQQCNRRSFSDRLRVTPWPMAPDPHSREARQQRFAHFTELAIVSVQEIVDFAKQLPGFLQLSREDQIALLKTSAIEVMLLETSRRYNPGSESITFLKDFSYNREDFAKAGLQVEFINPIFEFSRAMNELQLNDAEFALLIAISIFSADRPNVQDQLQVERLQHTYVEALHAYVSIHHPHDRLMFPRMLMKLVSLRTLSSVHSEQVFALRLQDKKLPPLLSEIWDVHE
# ASSAY_TEXT: biochemical
# DETAILS: LXR alpha IP, potency (Inflection Point), compound-induced co-activator recruitment, TR-FRET
Hi there, I'd appreciate the recorded pEC50 for every entry that follows.
Answers are plain numbers, as −log10 of the molar value.

COMPOUND: O=C(c1ccc(OCCCCC2CCN(C(=O)C(O)(c3ccccc3)C(F)(F)F)CC2)cc1Cl)N1CCC1 (single isomer, unassigned)
pEC50: 6.48
--
COMPOUND: COc1cccc(C(O)(C(=O)N2CCC3(CCC(Oc4ccc(C(=O)N(C)C)c(Cl)n4)CC3)CC2)C(F)(F)F)c1 (single isomer, unassigned) [Example 1-2]
pEC50: 5.73

Please report pEC50 for every entry that follows.
1. CN(C)C(=O)c1ccc(OCC2CC3(CCN(C(=O)C(O)(c4ccccc4)C(F)(F)F)CC3)C2)cc1Cl (single isomer, unassigned)
2. CNC(=O)c1ccc(OCC[C@@H]2C[C@@H]2C2CCN(C(=O)[C@](O)(c3cccc(OC)c3)C(F)(F)F)CC2)cc1Cl (single isomer, unassigned)
3. CN(C)C(=O)c1ccc(OCC[C@@H]2C[C@@H]2C2CCN(C(=O)OCc3ccccc3)CC2)nc1Cl (single isomer, unassigned)
4. COc1cccc([C@@](O)(C(=O)N2CCC3(CC2)C[C@@H]3CCCOc2ccc(C(=O)N(C)C)c(Cl)c2)C(F)(F)F)c1 (single isomer, unassigned)
5. CN(C)C(=O)c1ccc(OCC[C@@H]2C[C@@H]2C2CCN(C(=O)c3c(F)cccc3F)CC2)cc1Cl (single isomer, unassigned)
6. COc1ccccc1[C@@](O)(C(=O)N1CCC2(CC1)C[C@@H]2CCCOc1ccc(C(=O)N(C)C)c(Cl)c1)C(F)(F)F (single isomer, unassigned)

Result ::
1: 6.48; 2: 6.68; 3: 6.06; 4: 6.79; 5: 5.82; 6: 6.64

Please report pEC50 for every entry that follows.
1. CN(C)C(=O)c1ccc(OCC2(CC3CCN(C(=O)C(O)(c4ccccc4)C(F)(F)F)CC3)CC2)cc1Cl (single isomer, unassigned)
2. CC(CCCOc1ccc(C(=O)N(C)C)c(Cl)c1)C1CCN(C(=O)C(O)(c2ccccc2)C(F)(F)F)CC1 (single isomer, unassigned) [Example 26-2]
3. O=C(c1ccc(OCCCCC2CCN(C(=O)C(O)(c3ccccc3)C(F)(F)F)CC2)cc1Cl)N1C[C@@H]2CC[C@H]1C2 (single isomer, unassigned)

Result ::
[5.79, 6.99, 6.39]
